Data provenance: patent US20260097105A1

molecular target: WT HLA-A*29:02/β2m/[…] (human); assay: competition; details: chains peptide; modification not given
readout: pIC50
Give bare numbers, as −log10 of the molar value.

In: Provide only the value of recorded pIC50 for ALIDVFHQY […]
Out: 7.31
